measuredTarget: T1, IL-18 receptors on HEK-Blue IL-18 reporter cells (UniProt Q13478 19-541; O95256 20-599, limits assumed); further: unit not given here
T1 sequence (looked up) 1: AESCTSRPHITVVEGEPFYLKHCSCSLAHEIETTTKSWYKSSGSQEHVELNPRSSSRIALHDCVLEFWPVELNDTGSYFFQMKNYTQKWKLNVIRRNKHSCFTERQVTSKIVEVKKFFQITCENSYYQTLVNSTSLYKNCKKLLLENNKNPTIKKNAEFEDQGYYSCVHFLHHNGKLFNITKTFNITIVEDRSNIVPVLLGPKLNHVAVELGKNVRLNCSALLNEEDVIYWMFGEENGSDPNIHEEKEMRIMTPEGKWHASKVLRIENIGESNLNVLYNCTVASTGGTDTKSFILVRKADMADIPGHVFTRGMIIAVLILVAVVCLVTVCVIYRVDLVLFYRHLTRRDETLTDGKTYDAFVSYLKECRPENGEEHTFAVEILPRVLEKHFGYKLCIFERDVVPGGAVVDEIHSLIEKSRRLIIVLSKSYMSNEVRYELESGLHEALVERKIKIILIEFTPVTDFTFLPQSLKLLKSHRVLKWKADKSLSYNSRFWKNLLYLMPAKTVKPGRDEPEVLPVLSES
T1 sequence (looked up) 2: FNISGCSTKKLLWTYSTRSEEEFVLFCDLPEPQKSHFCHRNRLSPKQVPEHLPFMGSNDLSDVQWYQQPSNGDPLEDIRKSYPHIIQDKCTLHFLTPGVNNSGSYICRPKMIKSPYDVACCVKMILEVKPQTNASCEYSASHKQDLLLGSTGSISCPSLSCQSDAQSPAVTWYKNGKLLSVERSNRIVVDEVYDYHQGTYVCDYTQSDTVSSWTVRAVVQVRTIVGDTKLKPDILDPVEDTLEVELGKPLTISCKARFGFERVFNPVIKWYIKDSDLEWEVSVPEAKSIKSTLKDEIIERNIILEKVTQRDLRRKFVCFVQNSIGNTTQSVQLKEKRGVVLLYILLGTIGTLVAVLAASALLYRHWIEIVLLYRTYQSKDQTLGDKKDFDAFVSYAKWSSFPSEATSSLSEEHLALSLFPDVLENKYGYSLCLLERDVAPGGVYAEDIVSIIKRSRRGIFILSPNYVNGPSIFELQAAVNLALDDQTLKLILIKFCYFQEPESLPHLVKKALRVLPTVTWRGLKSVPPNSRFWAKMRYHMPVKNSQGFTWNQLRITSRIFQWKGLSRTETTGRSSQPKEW
method: cell-based or functional assay
Rule: measured Activity, No BP, DF-100000 below 1 gets met; anything equal to or greater than 1 gets not met.

binder: IL-18 variant G3Q, E6N (ligand) YFQKLNSKLSVIRNLNDQVLFIDQGNRPLFEDMTDSDMRDNAPRTIFIISMYKDSQPRGMAVTISVKSEKISTLSSENKIISFKEMNPPDNIKDTKSDIIFFQRSVPGHDNKMQFESSSYEGYFLASEKERDLFKLILKKEDELGDRSIMFTVQNED
classification: not met

binder: IL-18 variant G3R, L5W, E6H, D54Y, Q56H, N91R (ligand) YFRKWHSKLSVIRNLNDQVLFIDQGNRPLFEDMTDSDMRDNAPRTIFIISMYKYSHPRGMAVTISVKSEKISTLSSENKIISFKEMNPPDRIKDTKSDIIFFQRSVPGHDNKMQFESSSYEGYFLASEKERDLFKLILKKEDELGDRSIMFTVQNED
classification: met

binder: IL-18 variant G3L, E6Q, D54Y, S55P, T63S, N91S, R104Q (ligand) YFLKLQSKLSVIRNLNDQVLFIDQGNRPLFEDMTDSDMRDNAPRTIFIISMYKYPQPRGMAVSISVKSEKISTLSSENKIISFKEMNPPDSIKDTKSDIIFFQQSVPGHDNKMQFESSSYEGYFLASEKERDLFKLILKKEDELGDRSIMFTVQNED
classification: not met

binder: IL-18 variant E6N, D54N, S55N, N91H, R104P (ligand) YFGKLNSKLSVIRNLNDQVLFIDQGNRPLFEDMTDSDMRDNAPRTIFIISMYKNNQPRGMAVTISVKSEKISTLSSENKIISFKEMNPPDHIKDTKSDIIFFQPSVPGHDNKMQFESSSYEGYFLASEKERDLFKLILKKEDELGDRSIMFTVQNED
classification: met

binder: IL-18 variant G3Q, E6Q, K53T, D54W, S55F, N91Y (ligand) YFQKLQSKLSVIRNLNDQVLFIDQGNRPLFEDMTDSDMRDNAPRTIFIISMYTWFQPRGMAVTISVKSEKISTLSSENKIISFKEMNPPDYIKDTKSDIIFFQRSVPGHDNKMQFESSSYEGYFLASEKERDLFKLILKKEDELGDRSIMFTVQNED
classification: not met

binder: IL-18 variant G3S, E6Q, K53S, D54Y, S55H, N91L, R104Q (ligand) YFSKLQSKLSVIRNLNDQVLFIDQGNRPLFEDMTDSDMRDNAPRTIFIISMYSYHQPRGMAVTISVKSEKISTLSSENKIISFKEMNPPDLIKDTKSDIIFFQQSVPGHDNKMQFESSSYEGYFLASEKERDLFKLILKKEDELGDRSIMFTVQNED
classification: met

binder: IL-18 variant G3P, E6R, K53T, D54Y, S55I, T63V, N91G, R104K (ligand) YFPKLRSKLSVIRNLNDQVLFIDQGNRPLFEDMTDSDMRDNAPRTIFIISMYTYIQPRGMAVVISVKSEKISTLSSENKIISFKEMNPPDGIKDTKSDIIFFQKSVPGHDNKMQFESSSYEGYFLASEKERDLFKLILKKEDELGDRSIMFTVQNED
classification: met

binder: IL-18 variant G3Y, E6S, K53S, D54W, S55L, T63S, N91I (ligand) YFYKLSSKLSVIRNLNDQVLFIDQGNRPLFEDMTDSDMRDNAPRTIFIISMYSWLQPRGMAVSISVKSEKISTLSSENKIISFKEMNPPDIIKDTKSDIIFFQRSVPGHDNKMQFESSSYEGYFLASEKERDLFKLILKKEDELGDRSIMFTVQNED
classification: met

binder: IL-18 variant G3P, E6K, K53N, D54S, S55P, T63S, N91S, R104Q (ligand) YFPKLKSKLSVIRNLNDQVLFIDQGNRPLFEDMTDSDMRDNAPRTIFIISMYNSPQPRGMAVSISVKSEKISTLSSENKIISFKEMNPPDSIKDTKSDIIFFQQSVPGHDNKMQFESSSYEGYFLASEKERDLFKLILKKEDELGDRSIMFTVQNED
classification: met

binder: IL-18 variant G3S, E6H, K53Y, D54P, S55Y, T63S, N91A, R104S (ligand) YFSKLHSKLSVIRNLNDQVLFIDQGNRPLFEDMTDSDMRDNAPRTIFIISMYYPYQPRGMAVSISVKSEKISTLSSENKIISFKEMNPPDAIKDTKSDIIFFQSSVPGHDNKMQFESSSYEGYFLASEKERDLFKLILKKEDELGDRSIMFTVQNED
classification: met

binder: IL-18 variant E6G, D54A, S55K, T63S, N91K, Q114R (ligand) YFGKLGSKLSVIRNLNDQVLFIDQGNRPLFEDMTDSDMRDNAPRTIFIISMYKAKQPRGMAVSISVKSEKISTLSSENKIISFKEMNPPDKIKDTKSDIIFFQRSVPGHDNKMRFESSSYEGYFLASEKERDLFKLILKKEDELGDRSIMFTVQNED
classification: not met

binder: IL-18 variant G3L, E6S, D54T, T63S, N91Y, R104Q (ligand) YFLKLSSKLSVIRNLNDQVLFIDQGNRPLFEDMTDSDMRDNAPRTIFIISMYKTSQPRGMAVSISVKSEKISTLSSENKIISFKEMNPPDYIKDTKSDIIFFQQSVPGHDNKMQFESSSYEGYFLASEKERDLFKLILKKEDELGDRSIMFTVQNED
classification: not met

binder: IL-18 variant G3P, E6N, D54Y, T63S, N91S, R104Q (ligand) YFPKLNSKLSVIRNLNDQVLFIDQGNRPLFEDMTDSDMRDNAPRTIFIISMYKYSQPRGMAVSISVKSEKISTLSSENKIISFKEMNPPDSIKDTKSDIIFFQQSVPGHDNKMQFESSSYEGYFLASEKERDLFKLILKKEDELGDRSIMFTVQNED
classification: met
